Assay: MB-102 pig plasma concentration after intramuscular dosing
Assay type: in vivo
Details: Yorkshire, plasma, intramuscular, 3.2 mg/kg; pig 09801, IM, 3.2 mpk, 75 min; read-out: MB-102 Pig Plasma Conc.
experimentalReadout: concentration at 75 min (ng/mL)
Only the number, expressed in ng/mL, is required.

The compound listed as Nc1nc(C(=O)N[C@H](CO)C(=O)O)c(N)nc1C(=O)N[C@H](CO)C(=O)O shows concentration at 75 min equal to 3920

---

Experiment: MB-102 pig plasma concentration after subcutaneous dosing
Type: in vivo
Settings: Yorkshire, pig, plasma, subcutaneous, 3.2 mg/kg, pig 52771, SubQ, 3.2 mpk, 165 min; read-out: MB-102 Pig Plasma Conc.
experimentalReadout: concentration at 165 min (ng/mL)
Only the number, expressed in ng/mL, is required.

The compound listed as Nc1nc(C(=O)N[C@H](CO)C(=O)O)c(N)nc1C(=O)N[C@H](CO)C(=O)O shows concentration at 165 min equal to 3950
